Target Under Test: B-cat-Halo (beta-catenin HaloTag NanoBRET construct expressed in HEK293 cells) (UniProt P35222)
Sequence (P35222 whole entry): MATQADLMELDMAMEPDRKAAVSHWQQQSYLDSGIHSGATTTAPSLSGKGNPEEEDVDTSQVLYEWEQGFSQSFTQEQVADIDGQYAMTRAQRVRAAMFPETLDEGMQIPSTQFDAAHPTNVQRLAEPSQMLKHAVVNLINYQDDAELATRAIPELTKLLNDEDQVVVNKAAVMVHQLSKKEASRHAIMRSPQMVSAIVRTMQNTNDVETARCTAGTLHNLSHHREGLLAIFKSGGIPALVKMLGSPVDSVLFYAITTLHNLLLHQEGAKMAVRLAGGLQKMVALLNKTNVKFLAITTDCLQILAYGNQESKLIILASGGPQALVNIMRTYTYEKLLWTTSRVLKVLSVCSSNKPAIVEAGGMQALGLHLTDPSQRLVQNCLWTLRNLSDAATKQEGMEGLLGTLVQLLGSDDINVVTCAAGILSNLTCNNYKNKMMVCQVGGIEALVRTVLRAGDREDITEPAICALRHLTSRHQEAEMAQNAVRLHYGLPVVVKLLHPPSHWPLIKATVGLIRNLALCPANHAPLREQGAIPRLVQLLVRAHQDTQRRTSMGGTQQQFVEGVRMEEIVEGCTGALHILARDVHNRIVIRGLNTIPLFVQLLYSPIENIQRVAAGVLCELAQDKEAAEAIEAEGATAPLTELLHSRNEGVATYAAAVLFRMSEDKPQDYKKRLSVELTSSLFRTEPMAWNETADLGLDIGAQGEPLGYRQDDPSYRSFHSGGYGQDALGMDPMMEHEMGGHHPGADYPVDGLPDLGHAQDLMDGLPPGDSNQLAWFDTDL
Measurement Description: NanoBRET in HEK293 cells, Bcat-Halo / TCF4-Luc (competitor TCF4-Luc); absolute IC50
pIC50: −log10 of the molar value. Starred links: 1 amine or outer side, 2 acyl side, 3 side chain; linkers in the order of their positions; H or OH if unused. Positions of bridges follow the written chain, without caps; N, C: chain ends. Non-standard residues stand in square brackets, D forms with d. Primed or numbered codes have the meaning given here. *: point of attachment. PyrS2″ = (S)-3-amino-1-((pent-4-en-1-yloxy)carbonyl)pyrrolidine-3-carboxylic acid (stapling residue), C=CCCCOC(=O)N1CC[C@@](N[*:1])(C(=O)[*:2])C1; B5(5) = 2,2-bis(4-pentenyl)glycine, 2-amino-2-(pent-4-en-1-yl)hept-6-enoic acid (stitching residue), C=CCCCC(CCCC=C)(N[*:1])C(=O)[*:2]; Phe(3-COOH) = N[C@@H](Cc1cccc(C(=O)O)c1)C(=O)O; Phe(2-Cl) = N[C@@H](Cc1ccccc1Cl)C(=O)O; Bta = N[C@@H](Cc1csc2ccccc12)C(=O)O; αAllylPro = C=CC[C@@]1(C(=O)O)CCCN1; tBuAla = CC(C)(C)C[C@H](N)C(=O)O; 3Thi = N[C@@H](Cc1ccsc1)C(=O)O; Propioloyl = C#CC(=O)*; Aib = CC(C)(N)C(=O)O
Parameter: pIC50

Ask: GET /values?readout=pIC50&item= Ac-[αAllylPro]D[tBuAla][B5(5)]NT[Aib]AFH[PyrS2″][3Thi][Bta]Q-NH2 (staple 1-4, 4-11) [I-2410]
Reply: < 4.70

Ask: Propioloyl-[αAllylPro]D[tBuAla][B5(5)]D[Phe(3-COOH)]AAFL[PyrS2″][Phe(2-Cl)][Bta]A-NH2 (staple 1-4, 4-11) [I-2403] , same question.
Reply: < 4.70

Ask: Ac-[αAllylPro]D[tBuAla][B5(5)]NT[Aib]AFN[PyrS2″][3Thi][Bta]T-NH2 (staple 1-4, 4-11) [I-2416] , same question.
Reply: < 4.70
